Listed below: tissue uptake at 2 h values for each entry.
Experiment: Biodistribution in mouse CCRF S-180 tumor cells xenografted in ICR mouse measured after 120 mins
Format: ADME, organism-based
Conditions: read-out: Drug uptake
measured metric: tissue uptake at 2 h

# molecule, measured metric, assay result
data = [
    ("O=C(O)CN(CCN(CC(=O)O)CC(=O)O)CCN(CC(=O)O)CC(=O)N[C@@H](Cc1ccc(N(CCCl)CCCl)cc1)C(=O)O", "tissue uptake at 2 h", "1.03 %ID/g"),
    ("C/C1=C\\CC[C@@]2(C)O[C@H]2[C@H]2OC(=O)C(CNC(Cc3ccc(N(CCCl)CCCl)cc3)C(=O)O)[C@@H]2CC1 (some centres not stated)", "tissue uptake at 2 h", "1.63 %ID/g"),
]

* * *

System: SAOS-2
Test: Cytotoxicity against human SAOS-2 cells assessed as cell growth inhibition incubated for 72 hrs by resazurin reduction method
Type: functional, cell-based
Conditions: SAOS-2, 72 h
pIC50: −log10 of the molar value.
measured metric: pIC50

# structure notation, tgt, assay result
records = [
    ("C[N+](C)(C)CCCNC(=O)[C@@H](N)Cc1ccc(N(CCCl)CCCl)cc1", "SAOS-2", 4.43),
]

* * *

Assay: Biodistribution in mouse CCRF S-180 tumor cells xenografted in ICR mouse measured after 240 mins
Type: ADME, organism-based
Conditions: read-out: Drug uptake
measured metric: tissue uptake at 4 h

# structure notation, measured metric, assay result
records = [
    ("CN(C)c1ccc(/C=N\\Nc2ccc(CN[C@@H](Cc3ccc(N(CCCl)CCCl)cc3)C(=O)O)cc2)cc1", "tissue uptake at 4 h", "0.98 %ID/g"),
]

* * *

Tested on: MCF7
Test: Cytotoxicity against human MCF7 cells assessed as cell growth inhibition incubated for 48 hrs by AlamarBlue assay
Format: functional, cell-based
Conditions: MCF7, 48 h
measured metric: IC50

# compound, measured metric, assay result
data = [
    ("Nc1ccn([C@@H]2O[C@H](CO)[C@@H](O)[C@@H]2O)c(=O)n1", "IC50", "> 20 µM"),
    ("N[C@@H](Cc1ccc(N(CCCl)CCCl)cc1)C(=O)O", "IC50", "> 20 µM"),
    ("C=C1C(=O)O[C@@H]2C3O[C@]3(C)CC/C=C(\\C)CC[C@@H]12 (stereo partly drawn)", "IC50", "> 20 µM"),
]

Every entry's value here was drawn from ChEMBL document CHEMBL5214922.
